Target: Tyrosine-protein kinase receptor TYRO3 (Homo sapiens) (UniProt Q06418)
Sequence (Q06418 whole entry, the tested form may be a part): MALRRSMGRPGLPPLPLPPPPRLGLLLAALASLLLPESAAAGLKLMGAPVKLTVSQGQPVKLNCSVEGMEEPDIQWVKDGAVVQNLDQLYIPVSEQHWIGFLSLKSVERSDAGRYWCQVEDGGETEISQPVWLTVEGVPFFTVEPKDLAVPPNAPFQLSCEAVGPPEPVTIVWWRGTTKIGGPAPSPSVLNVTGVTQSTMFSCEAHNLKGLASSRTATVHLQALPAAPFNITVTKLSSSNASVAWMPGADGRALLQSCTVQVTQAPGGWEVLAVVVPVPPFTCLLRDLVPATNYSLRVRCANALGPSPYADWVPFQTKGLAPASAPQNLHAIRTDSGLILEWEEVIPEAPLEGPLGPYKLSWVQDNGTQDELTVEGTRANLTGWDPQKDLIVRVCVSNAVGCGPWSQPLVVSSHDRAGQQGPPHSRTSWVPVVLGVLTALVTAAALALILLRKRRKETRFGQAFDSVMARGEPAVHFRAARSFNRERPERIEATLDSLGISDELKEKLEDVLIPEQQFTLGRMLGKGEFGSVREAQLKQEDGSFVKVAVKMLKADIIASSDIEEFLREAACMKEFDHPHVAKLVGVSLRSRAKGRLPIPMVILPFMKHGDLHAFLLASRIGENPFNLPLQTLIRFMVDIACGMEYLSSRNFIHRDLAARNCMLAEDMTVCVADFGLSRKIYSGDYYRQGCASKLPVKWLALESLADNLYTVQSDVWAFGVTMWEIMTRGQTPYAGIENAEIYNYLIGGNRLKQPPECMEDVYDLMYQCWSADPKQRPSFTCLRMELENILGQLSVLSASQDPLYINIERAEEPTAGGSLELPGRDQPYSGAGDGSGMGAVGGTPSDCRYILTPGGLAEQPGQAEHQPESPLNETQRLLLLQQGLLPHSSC
Assay: Binding affinity to wild-type human partial length TYRO3 (S497 to T814 residues) expressed in bacterial expression system assessed as fraction of unbound kinase to substrate at 10 uM after 1 hr by KinomeScan assay

>  <smiles>
O=C(Nc1ccc(Oc2c(Br)cnc3[nH]cnc23)c(F)c1)c1cccn(-c2ccc(F)cc2)c1=O

>  <unitText>
%

>  <Activity>
10

$$$$
>  <smiles>
O=C(Nc1ccc(Oc2ccnc3[nH]cnc23)c(F)c1)c1cccn(-c2ccc(F)cc2)c1=O

>  <unitText>
%

>  <Activity>
99.8

$$$$
>  <smiles>
Cc1cnc2[nH]cnc2c1Oc1ccc(NC(=O)c2cccn(-c3ccc(F)cc3)c2=O)cc1F

>  <unitText>
%

>  <Activity>
5

$$$$
>  <smiles>
CC(C)c1nc2c(Oc3ccc(NC(=O)c4cccn(-c5ccc(F)cc5)c4=O)cc3F)ccnc2[nH]1

>  <unitText>
%

>  <Activity>
92.4

$$$$
